- System: 786-0 renal
- experimental details: NCI-60 one-dose screen, 48 h (100 = growth as untreated, 0 = no growth, -100 = all killed)
- condition notes: 10 µM unless noted
This is part of a sample that, as a whole, favours compounds with a hit. Of some 83,000 tested, about 20% had one in any assay.
experimental endpoint: growth (%)
Report the value in % with no unit label.

Q: I'm curious: which growth was measured for O=C(CNCCO)Nc1ccc2ncnc(Nc3ccc(OCc4cccc(F)c4)c(Cl)c3)c2c1 tested on 786-0 renal?
A: 69.6

Q: I'm curious: which growth was measured for COc1ccc(C(O)c2cc3c(N)c(C(=O)Nc4ccc(Cl)cc4)sc3nc2C)cc1 (centres undefined) tested on 786-0 renal?
A: 55.2

Q: I'm curious: which growth was measured for C#CCNC(=O)[C@H](Cc1ccccc1)NC(=O)[C@]12CC[C@@H](C(=C)C)[C@@H]1[C@H]1CC[C@@H]3[C@@]4(C)Cc5c([nH]c6ccccc56)C(C)(C)[C@@H]4CC[C@@]3(C)[C@]1(C)CC2 tested on 786-0 renal?
A: 87.8

Q: I'm curious: which growth was measured for CCCCCCCCCCN=C(N)N=C(N)N tested on 786-0 renal?
A: 26.2

Ref: PubChem BioAssay (NCI)
